- assayedTarget: recombinant human VEGF-R2 (Homo sapiens)
- Sequence (P35968 789-1356 limits assumed): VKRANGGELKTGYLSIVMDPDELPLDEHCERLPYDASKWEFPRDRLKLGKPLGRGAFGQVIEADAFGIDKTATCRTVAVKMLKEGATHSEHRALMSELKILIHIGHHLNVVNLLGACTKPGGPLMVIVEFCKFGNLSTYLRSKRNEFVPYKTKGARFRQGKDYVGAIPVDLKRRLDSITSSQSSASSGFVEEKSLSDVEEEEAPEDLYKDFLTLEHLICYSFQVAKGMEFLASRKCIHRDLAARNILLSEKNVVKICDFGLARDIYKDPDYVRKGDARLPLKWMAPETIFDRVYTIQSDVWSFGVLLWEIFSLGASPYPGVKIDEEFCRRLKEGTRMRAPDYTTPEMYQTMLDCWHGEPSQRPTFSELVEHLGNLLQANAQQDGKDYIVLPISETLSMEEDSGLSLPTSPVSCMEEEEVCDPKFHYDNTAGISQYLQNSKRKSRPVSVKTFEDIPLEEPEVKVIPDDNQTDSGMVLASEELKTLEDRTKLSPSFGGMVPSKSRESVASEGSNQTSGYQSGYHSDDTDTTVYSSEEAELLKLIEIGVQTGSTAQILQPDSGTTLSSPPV
- testSummary: VEGF-R2 kinase assay (ELISA, DELFIA time-resolved fluorescence)
measuredAttribute: IC50 (nM)
The response must be a number in nM with no trailing unit.

COCC(=O)Nc1cc2c(cc1F)/C(=C/c1[nH]c3c(c1C)C(=O)N(C[C@@H](O)CN1CCOCC1)CC3)C(=O)N2 [Example 13]    130
Cc1c(/C=C2\C(=O)Nc3ccc(Br)cc32)[nH]c2c1C(=O)N(C[C@H](O)CN1CCOCC1)CC2 [Example 4]    998
Cc1c(/C=C2\C(=O)Nc3cc(NC(=O)C(C)(C)O)c(F)cc32)[nH]c2c1C(=O)N(C[C@@H](O)CN1CCOCC1)CC2 [Example 11]    3
COCC(=O)Nc1cc2c(cc1F)/C(=C/c1[nH]c3c(c1C)C(=O)N(C[C@H](O)CN1CCOCC1)CC3)C(=O)N2 [Example 16]    110

Then there is this molecule:
I looked up Cc1c(/C=C2\C(=O)Nc3cc(NC(=O)C(C)(C)O)c(F)cc32)[nH]c2c1C(=O)N(C[C@H](O)CN1CCOCC1)CC2 [Example 17] and its IC50 for recombinant human VEGF-R2 (Homo sapiens) was 4
